Data credit: PubChem BioAssay AID1645868

# targetOrSystem: OTU domain-containing protein 3 (Homo sapiens)
# assayProcedure: Validation of screening hits, potency titration, in vitro enzymatic, OTU domain-containing protein 3 DUB inhibitors (AID 1645868)
# protocolConditions: purified OTUD3, ubiquitin-rhodamine cleavage fluorescence, 2 h
The source made the active and inactive calls.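 The calls were made as follows: active = maximal percent inhibition of the deubiquitinase OTUD3 of at least 30% across the tested doses; inactive = the rest.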
The reply should be one of these categories: active, inactive

Completed entries (count: 2):
substanceSmiles: O=C(Cc1ccc(Cl)c(Cl)c1)OCC(=O)c1c[nH]c2ccccc12
assignedClass: inactive
//
substanceSmiles: Cc1ccc(-n2cc(C(=O)NCc3cccnc3)nn2)cc1C
assignedClass: active

INPUT: Which outcome did this test record for the compound O=C(Nc1ccc2c(c1)OCCO2)c1cccc2nc3ccccc3nc12 ?
OUTPUT: active

====

# targetOrSystem: OTU domain-containing protein 3 (Homo sapiens) (UniProt Q5T2D3)
# Sequence (Q5T2D3 whole entry, looked up, the tested form may be a part): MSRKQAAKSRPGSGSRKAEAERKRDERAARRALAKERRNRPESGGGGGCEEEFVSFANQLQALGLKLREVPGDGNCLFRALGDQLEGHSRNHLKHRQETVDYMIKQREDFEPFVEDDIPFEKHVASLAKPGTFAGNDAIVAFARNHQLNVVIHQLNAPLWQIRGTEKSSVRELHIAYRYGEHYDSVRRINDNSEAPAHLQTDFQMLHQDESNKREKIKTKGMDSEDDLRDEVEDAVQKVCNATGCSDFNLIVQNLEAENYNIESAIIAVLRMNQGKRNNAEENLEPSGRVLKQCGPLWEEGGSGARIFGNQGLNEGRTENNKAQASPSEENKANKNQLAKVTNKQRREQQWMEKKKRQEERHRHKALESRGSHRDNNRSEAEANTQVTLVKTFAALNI
# assayProcedure: Validation of screening hits, potency titration, in vitro enzymatic, OTU domain-containing protein 3 DUB inhibitors (AID 1645868)
# protocolConditions: purified OTUD3, ubiquitin-rhodamine cleavage fluorescence, 2 h
Active and inactive are the calls of the source.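 The calls were made as follows: active = maximal percent inhibition of the deubiquitinase OTUD3 of at least 30% across the tested doses; inactive = the rest.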
The reply should be one of these categories: t = active, f = inactive

Completed entries (count: 2):
substanceSmiles: O=C(NCc1ccc2c(c1)OCO2)c1[nH]nc2c1COc1ccccc1-2
assignedClass: t
--
substanceSmiles: Cc1ccc2c(c1)c(=O)c(C(=O)c1ccc(F)cc1)cn2CC(=O)Nc1ccc2c(c1)OCCO2
assignedClass: f

INPUT: Which outcome did this test record for the molecule COc1ccc(-c2cc3nc([C@H](C)NC(=O)Cc4ccccc4C)nn3cn2)cc1 ?
OUTPUT: t

INPUT: Which outcome did this test record for the molecule O=c1c2ccccc2oc2nc(-c3cccs3)n(-c3ccccc3)c(=O)c12 ?
OUTPUT: t

INPUT: Which outcome did this test record for the molecule COc1ccc(CNC(=O)CCc2nc3sc4c(c3c(=O)[nH]2)CCCCC4)cc1 ?
OUTPUT: f

====

# targetOrSystem: OTU domain-containing protein 3 (Homo sapiens) (UniProt Q5T2D3)
# assayProcedure: Validation of screening hits, potency titration, in vitro enzymatic, OTU domain-containing protein 3 DUB inhibitors (AID 1645868)
# protocolConditions: purified OTUD3, ubiquitin-rhodamine cleavage fluorescence, 2 h
Activity calls are given as the source filed them.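 How the source made its calls: active means maximal percent inhibition of the deubiquitinase OTUD3 of at least 30% across the tested doses; inactive means the rest.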
The reply should be one of these categories: True for active, False for inactive

Completed entries (count: 5):
compound: Cc1ccc(-c2nc(-c3cccs3)cc(C(F)(F)F)c2C#N)cc1
assignedClass: False
//
compound: COCCNC(=O)c1ccn(-c2ccc3ccc(-c4cnn(C)c4)cn23)n1
assignedClass: False
//
compound: COc1cccc(-n2cnc3cc(C(=O)NC4CC4)ccc3c2=O)c1
assignedClass: False
//
compound: Cc1ccc(S(=O)(=O)NCC(=O)OC(C(=O)Nc2cc(C)ccc2C)c2ccccc2)cc1 (stereo not drawn)
assignedClass: False
//
compound: CN1CCN(C(=O)c2ccn(-c3ccc4ccc(-c5cnn(C)c5)cn34)n2)CC1
assignedClass: False

INPUT: Which outcome did this test record for the compound Cn1ccc2c(cc(C(=O)NCCC3=CCCCC3)n2C)c1=O ?
OUTPUT: False

INPUT: Which outcome did this test record for the compound COc1cc2cc3c(c(O)c2c(O)c1-c1c(OC)cc2cc4c(c(O)c2c1O)C(=O)OC1CC(C)OC41)C(=O)OC1CC(C)OC31 (stereo not drawn) ?
OUTPUT: False

INPUT: Which outcome did this test record for the compound COC(=O)c1ccc2c(=O)n(CCCCCC(=O)NCc3cccc(Cl)c3)c(=O)[nH]c2c1 ?
OUTPUT: True

====

IC50 by entry:
# targetOrSystem: OTU domain-containing protein 3 (Homo sapiens) (UniProt Q5T2D3)
# assayProcedure: Validation of screening hits, potency titration, in vitro enzymatic, OTU domain-containing protein 3 DUB inhibitors (AID 1645868)
# protocolConditions: purified OTUD3, ubiquitin-rhodamine cleavage fluorescence, 2 h
The source made the active and inactive calls.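 Rule for the calls: active = maximal percent inhibition of the deubiquitinase OTUD3 of at least 30% across the tested doses; inactive = the rest.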

Example results:
molecule: Cc1sc2nc(CN3CCCC3)nc(NCCc3ccc(Cl)cc3)c2c1C
IC50: > 50 µM (inactive)
//
molecule: O=C(CCc1nnc2n(Cc3ccc(F)cc3)c(=O)c3ccccc3n12)N1CCN(c2ccccn2)CC1
IC50: > 50 µM (inactive)
//
molecule: COC(=O)c1ccc2c(=O)n(CCCCCC(=O)NCCc3ccc(S(N)(=O)=O)cc3)c(=O)[nH]c2c1
IC50: 12.5 µM
//
molecule: CCOC(=O)c1cn(C2CC2)c2cc(N3CCNCC3)c([N+](=O)[O-])cc2c1=O
IC50: > 50 µM (inactive)
//
molecule: Cc1ccc(OCCn2c(=N)n(C(C)C)c3ccccc32)cc1
IC50: > 50 µM (inactive)

INPUT: Using the record for O=S(=O)(c1ccc(F)cc1)N1CCCC1c1ccnc(Nc2cnccn2)n1 (stereo unspecified) , report its IC50.
OUTPUT: > 50 µM (inactive)

INPUT: Using the record for O=C(/C=C/c1ccc(F)cc1)Nc1ccc2c(c1)OCCO2 , report its IC50.
OUTPUT: > 50 µM (inactive)

INPUT: Using the record for CN=C(N)NCCC/C=C/CCCC(C)CC(C)C1OC(=O)/C=C/C(C)C(O)CC(O)C(C)C(O)CCC(C)C(O)CC2(O)OC(CC(OC(=O)CC(=O)O)CC(O)CC(O)C(C)C(O)/C=C/C1C)CC(O)C2O (stereo unspecified) , report its IC50.
OUTPUT: > 50 µM (inactive)

====

# targetOrSystem: OTU domain-containing protein 3 (Homo sapiens)
# assayProcedure: Validation of screening hits, potency titration, in vitro enzymatic, OTU domain-containing protein 3 DUB inhibitors (AID 1645868)
# protocolConditions: purified OTUD3, ubiquitin-rhodamine cleavage fluorescence, 2 h
Activity calls are given as the source filed them.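 The calls were made as follows: active = maximal percent inhibition of the deubiquitinase OTUD3 of at least 30% across the tested doses; inactive = the rest.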
The reply should be one of these categories: active, inactive

molecule: COc1ccc(C(=O)Nc2ccccc2C(=O)NCc2ccccc2)cc1
targetOrSystem: OTU domain-containing protein 3 (Homo sapiens)
assignedClass: inactive
//
molecule: Cc1cc2nc(/C=C/c3ccccc3)n(Cc3cccc(F)c3)c2cc1C
targetOrSystem: OTU domain-containing protein 3 (Homo sapiens)
assignedClass: inactive
//
molecule: CCOC(=O)c1cc2c(ccn2C)n1CC(=O)N1CCc2ccccc2C1
targetOrSystem: OTU domain-containing protein 3 (Homo sapiens)
assignedClass: inactive
//
molecule: Cc1ccc(/C=C/C(=O)Nc2ccc3c(c2)OCCO3)cc1
targetOrSystem: OTU domain-containing protein 3 (Homo sapiens)
assignedClass: inactive
//
molecule: Cc1nn(-c2nc3ccccc3[nH]2)c2c1C(c1cccs1)CC(=O)N2 (centres undefined)
targetOrSystem: OTU domain-containing protein 3 (Homo sapiens)
assignedClass: inactive
//
molecule: CC(C)(C)c1ccc(Cn2nnc3c(=O)[nH]c(C4CCN(S(=O)(=O)c5ccc(S(=O)(=O)NC6CC6)cc5)CC4)nc32)cc1
targetOrSystem: OTU domain-containing protein 3 (Homo sapiens)
assignedClass: inactive
//
molecule: O=C(Nc1nc2c(s1)COCC2)c1cc(-c2ccco2)[nH]n1
targetOrSystem: OTU domain-containing protein 3 (Homo sapiens)
assignedClass: inactive
//
molecule: O=C1CC(C(=O)Nc2ccccc2F)n2nc(-c3ccccc3)cc2N1 (centres undefined)
targetOrSystem: OTU domain-containing protein 3 (Homo sapiens)
assignedClass: active

INPUT: Which outcome did this test record for the molecule CCCC(=O)N1CCC2(CC1)Nc1ccccc1NC2=O ?
OUTPUT: inactive

INPUT: Which outcome did this test record for the molecule COc1ccc(NC(=O)COc2cc(CSc3ccccc3)ncc2OC)cc1 ?
OUTPUT: inactive

INPUT: Which outcome did this test record for the molecule Cc1cn[nH]c1C1COCCN1C(=O)c1ccc2ncccc2c1 (centres undefined) ?
OUTPUT: inactive

INPUT: Which outcome did this test record for the molecule CC(C)N(C(=O)Cn1c(=O)[nH]c2ccccc21)c1ccccc1 ?
OUTPUT: inactive

INPUT: Which outcome did this test record for the molecule CCOC(=O)C1C(c2ccc(Br)cc2)C2(C(=O)c3ccccc3C2=O)C2C=Cc3ccccc3N12 (centres undefined) ?
OUTPUT: inactive

INPUT: Which outcome did this test record for the molecule COC(=O)c1sccc1NC(=O)COc1ccsc1C(=O)OC ?
OUTPUT: inactive

INPUT: Which outcome did this test record for the molecule CC(C(=O)NCc1ccc2c(c1)OCO2)N1CCN(c2ccc(O)cc2)CC1 (centres undefined) ?
OUTPUT: inactive

INPUT: Which outcome did this test record for the molecule CCN(CCCNC(=O)c1ccc(Cn2c(=O)[nH]c3ccccc3c2=O)cc1)c1ccccc1 ?
OUTPUT: active

INPUT: Which outcome did this test record for the molecule Cc1cccc(C(=O)NCc2nc3ccccc3n2Cc2ccccc2C)c1 ?
OUTPUT: inactive

INPUT: Which outcome did this test record for the molecule Cc1ccc2nc(-c3cccc(-c4nc5ccc(C)cc5[nH]4)n3)[nH]c2c1 ?
OUTPUT: inactive

INPUT: Which outcome did this test record for the molecule COc1ccc(CCNC(=O)c2c(N)n(-c3cccc(Cl)c3)c3nc4ccccc4nc23)cc1 ?
OUTPUT: inactive

====

# targetOrSystem: OTU domain-containing protein 3 (Homo sapiens) (UniProt Q5T2D3)
# assayProcedure: Validation of screening hits, potency titration, in vitro enzymatic, OTU domain-containing protein 3 DUB inhibitors (AID 1645868);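 active = maximal percent inhibition of the deubiquitinase OTUD3 of at least 30% across the tested doses; inactive = the rest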
# protocolConditions: purified OTUD3, ubiquitin-rhodamine cleavage fluorescence, 2 h
The reply should be one of these categories: yes (1) (active), no (0) (inactive)

INPUT: Which outcome did this test record for the compound CCc1ccc2[nH]c3c(c(=O)c2c1)CN(CC(=O)NCc1ccc2c(c1)OCO2)CC3 ?
OUTPUT: yes (1)
